- assayed system: Adenosine receptor A2a (Homo sapiens, UniProt P29274)
- Sequence (P29274 whole entry): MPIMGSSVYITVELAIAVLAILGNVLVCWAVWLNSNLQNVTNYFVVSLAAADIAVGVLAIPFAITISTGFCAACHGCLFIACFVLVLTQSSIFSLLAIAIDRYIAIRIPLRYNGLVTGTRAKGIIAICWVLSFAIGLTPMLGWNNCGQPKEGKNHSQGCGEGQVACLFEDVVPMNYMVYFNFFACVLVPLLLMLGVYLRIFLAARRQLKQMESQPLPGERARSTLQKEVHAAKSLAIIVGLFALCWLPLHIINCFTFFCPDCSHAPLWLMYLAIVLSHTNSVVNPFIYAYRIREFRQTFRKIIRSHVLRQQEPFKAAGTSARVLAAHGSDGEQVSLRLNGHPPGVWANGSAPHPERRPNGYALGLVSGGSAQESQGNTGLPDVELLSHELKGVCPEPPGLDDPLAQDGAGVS
- assay notes: Displacement of [3H]ZM241385 from human adenosine A2a receptor expressed in human HeLa cells at 1 uM
- Assay type: cell-based
In this section, each of the compounds is paired with its reported Activity.
experimental endpoint: Activity (%)

[[record]]
compound = "CCn1c(=O)c2c(nc(-c3ccco3)n2C)n(CCCOC)c1=O"
data_value = 14

[[record]]
compound = "CC[S+]([O-])CCn1c(=O)c2[nH]c(Cc3ccco3)nc2n(CCCOC)c1=O (stereo not given)"
data_value = 12

[[record]]
compound = "CCS(=O)(=O)CCn1c(=O)c2[nH]c(Cc3ccco3)nc2n(CCCOC)c1=O"
data_value = 6

[[record]]
compound = "CCn1c(=O)c2[nH]c(Cc3ccco3)nc2n(CCCOC)c1=O"
data_value = 11

[[record]]
compound = "CCCn1c(=O)c2[nH]c(-c3ccc(-c4ccccc4)cc3)nc2n(CCCOC)c1=O"
data_value = 14


====

- assayed system: Adenosine receptor A2b (Homo sapiens) (UniProt P29275)
- Sequence (P29275 whole entry): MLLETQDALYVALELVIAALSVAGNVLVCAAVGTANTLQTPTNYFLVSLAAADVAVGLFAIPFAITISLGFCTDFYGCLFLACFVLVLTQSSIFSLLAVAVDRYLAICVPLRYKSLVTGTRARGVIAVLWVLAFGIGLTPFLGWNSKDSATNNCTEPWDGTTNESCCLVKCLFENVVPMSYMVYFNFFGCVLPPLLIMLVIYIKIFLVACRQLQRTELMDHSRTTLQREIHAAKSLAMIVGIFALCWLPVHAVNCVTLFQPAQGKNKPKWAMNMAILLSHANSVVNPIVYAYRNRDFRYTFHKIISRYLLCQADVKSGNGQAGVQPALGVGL
- assay notes: Displacement of [3H]DPCPX from human adenosine A2b receptor expressed in HEK293 cells at 1 uM
- Assay type: cell-based
Decision: Activity compared against 20%; not below it gives YES, below it gives NO.

[[record]]
compound = "CC[S+]([O-])CCn1c(=O)c2[nH]c(-c3ccccc3)nc2n(CCCOC)c1=O (configuration not stated)"
classification = "NO"

[[record]]
compound = "CCn1c(=O)c2[nH]c(Cc3ccco3)nc2n(CCCOC)c1=O"
classification = "NO"

[[record]]
compound = "COCCCn1c(=O)n(CCOC)c(=O)c2[nH]c(-c3ccccc3)nc21"
classification = "YES"

[[record]]
compound = "CCCn1c(=O)c2[nH]c(C3CCCC3)nc2n(CCCOC)c1=O"
classification = "YES"

[[record]]
compound = "CCCCCn1c(=O)c2[nH]c(-c3ccccc3)nc2n(CCCOC)c1=O"
classification = "YES"

[[record]]
compound = "CCS(=O)(=O)CCn1c(=O)c2[nH]c(Cc3ccco3)nc2n(CCCOC)c1=O"
classification = "NO"

[[record]]
compound = "CCCn1c(=O)c2[nH]c(CCCc3ccccc3)nc2n(CCCOC)c1=O"
classification = "YES"

[[record]]
compound = "CCS(=O)(=O)CCn1c(=O)c2[nH]c(-c3ccccc3)nc2n(CCCOC)c1=O"
classification = "NO"

[[record]]
compound = "CCn1c(=O)c2c(nc(-c3ccco3)n2C)n(CCCOC)c1=O"
classification = "NO"

[[record]]
compound = "CCCn1c(=O)c2[nH]c(-c3ccc(-c4ccccc4)cc3)nc2n(CCCOC)c1=O"
classification = "YES"

[[record]]
compound = "CCn1c(=O)c2[nH]c(-c3ccccc3)nc2n(CCCOC)c1=O"
classification = "YES"

[[record]]
compound = "CC[S+]([O-])CCn1c(=O)c2[nH]c(Cc3ccco3)nc2n(CCCOC)c1=O (configuration not stated)"
classification = "NO"

[[record]]
compound = "CCn1c(=O)c2c(nc(-c3ccc(-c4ccccc4)cc3)n2C)n(CCCOC)c1=O"
classification = "NO"

[[record]]
compound = "CCSCCn1c(=O)c2[nH]c(-c3ccccc3)nc2n(CCCOC)c1=O"
classification = "YES"

[[record]]
compound = "COCCCn1c(=O)n(CC(C)C)c(=O)c2[nH]c(-c3ccccc3)nc21"
classification = "YES"

[[record]]
compound = "CCCn1c(=O)c2[nH]c(-c3cccs3)nc2n(CCCOC)c1=O"
classification = "YES"

[[record]]
compound = "CCOCCn1c(=O)c2[nH]c(-c3ccccc3)nc2n(CCCOC)c1=O"
classification = "YES"


====

- assayed system: Adenosine receptor A3 (Homo sapiens)
- Sequence (P0DMS8 whole entry): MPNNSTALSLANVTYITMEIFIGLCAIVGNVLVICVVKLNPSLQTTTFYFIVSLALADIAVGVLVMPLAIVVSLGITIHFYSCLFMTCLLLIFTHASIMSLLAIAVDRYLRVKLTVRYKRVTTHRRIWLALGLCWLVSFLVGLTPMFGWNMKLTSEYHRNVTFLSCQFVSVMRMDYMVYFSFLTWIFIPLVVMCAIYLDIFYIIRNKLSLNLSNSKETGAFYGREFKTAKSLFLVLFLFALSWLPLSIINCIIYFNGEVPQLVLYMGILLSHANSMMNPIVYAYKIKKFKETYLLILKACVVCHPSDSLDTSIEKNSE
In this section, each of the molecules is paired with its reported Ki.
experimental endpoint: Ki (nM)

[[record]]
smiles_input = "CCn1c(=O)c2[nH]c(-c3ccc(OCC(=O)Nc4ccc(C#N)cc4)cc3)nc2n(CCCOC)c1=O"
experimental_endpoint = "Ki"
data_value = 398

[[record]]
smiles_input = "CCn1c(=O)c2[nH]c(-c3ccc(OCC(=O)Nc4ccc(C(C)=O)cc4)cc3)nc2n(CCCOC)c1=O"
experimental_endpoint = "Ki"
data_value = 708

[[record]]
smiles_input = "CCn1c(=O)c2[nH]c(-c3ccc(OCC(=O)Nc4cccnc4)cc3)nc2n(CCCOC)c1=O"
experimental_endpoint = "Ki"
data_value = 95.5

[[record]]
smiles_input = "CCn1c(=O)c2[nH]c(-c3ccc(OCC(=O)Nc4ccc(N(C)C)cc4)cc3)nc2n(CCCOC)c1=O"
experimental_endpoint = "Ki"
data_value = 209


====

- assayed system: Adenosine receptor A2a (Homo sapiens)
- assay notes: Displacement of [3H]ZM241385 from human adenosine A2a receptor expressed in human HeLa cells at 1 uM
- Type: cell-based
Decision: Activity compared against 30%; not below it gives Yes, below it gives No.

[[record]]
compound = "CCCn1c(=O)c2[nH]c(CCCc3ccccc3)nc2n(CCCOC)c1=O"
assayed_system = "Adenosine receptor A2a (Homo sapiens)"
classification = "No"

[[record]]
compound = "COCCCn1c(=O)n(CCOC)c(=O)c2[nH]c(-c3ccccc3)nc21"
assayed_system = "Adenosine receptor A2a (Homo sapiens)"
classification = "Yes"

[[record]]
compound = "CCCCCn1c(=O)c2[nH]c(-c3ccccc3)nc2n(CCCOC)c1=O"
assayed_system = "Adenosine receptor A2a (Homo sapiens)"
classification = "No"

[[record]]
compound = "CC[S+]([O-])CCn1c(=O)c2[nH]c(-c3ccccc3)nc2n(CCCOC)c1=O (stereo not drawn)"
assayed_system = "Adenosine receptor A2a (Homo sapiens)"
classification = "No"

[[record]]
compound = "COCCCn1c(=O)n(CC(C)C)c(=O)c2[nH]c(-c3ccccc3)nc21"
assayed_system = "Adenosine receptor A2a (Homo sapiens)"
classification = "No"

[[record]]
compound = "CCSCCn1c(=O)c2[nH]c(-c3ccccc3)nc2n(CCCOC)c1=O"
assayed_system = "Adenosine receptor A2a (Homo sapiens)"
classification = "No"

[[record]]
compound = "CCCn1c(=O)c2[nH]c(C3CCCC3)nc2n(CCCOC)c1=O"
assayed_system = "Adenosine receptor A2a (Homo sapiens)"
classification = "Yes"

[[record]]
compound = "CCn1c(=O)c2[nH]c(-c3ccccc3)nc2n(CCCOC)c1=O"
assayed_system = "Adenosine receptor A2a (Homo sapiens)"
classification = "Yes"


====

// endpoint pKi / system Adenosine receptor A1 (Rattus norvegicus, UniProt P25099)
pKi: −log10 of the molar value.
experimental endpoint: pKi

[[record]]
smiles_input = "CCn1c(=O)c2[nH]c(-c3ccc(OCC(=O)Nc4ccc(Br)cc4)cc3)nc2n(CCCOC)c1=O"
data_value = 7.00

[[record]]
smiles_input = "CCn1c(=O)c2[nH]c(-c3ccc(OCC(=O)N4CCc5ccccc5C4)cc3)nc2n(CCCOC)c1=O"
data_value = 7.00

[[record]]
smiles_input = "CCn1c(=O)c2[nH]c(-c3ccc(OCC(=O)Nc4ccc(F)cc4)cc3)nc2n(CCCOC)c1=O"
data_value = 7.68

[[record]]
smiles_input = "CCn1c(=O)c2[nH]c(-c3ccc(OCC(=O)Nc4ccon4)cc3)nc2n(CCCOC)c1=O"
data_value = 7.02

[[record]]
smiles_input = "CCn1c(=O)c2[nH]c(-c3ccc(OCC(=O)Nc4ccc(N(C)C)cc4)cc3)nc2n(CCCOC)c1=O"
data_value = 6.06

[[record]]
smiles_input = "CCn1c(=O)c2[nH]c(-c3ccc(OCC(=O)Nc4ccc(O)cc4)cc3)nc2n(CCCOC)c1=O"
data_value = 6.76

[[record]]
smiles_input = "CCn1c(=O)c2[nH]c(-c3ccc(OCC(=O)Nc4ccccc4)cc3)nc2n(CCCOC)c1=O"
data_value = 7.44

[[record]]
smiles_input = "CCn1c(=O)c2[nH]c(-c3ccc(OCC(=O)Nc4cccnc4)cc3)nc2n(CCCOC)c1=O"
data_value = 6.79

